Assay: fluorescence interference in NS3h DNA assay – biochemical, ChemBridge library, Cy5 readout, artefact control for HCV NS3 helicase inhibitor project (AID 720488)
Details: Cy5-dT15 DNA with NS3h, at 100 µM, actives lie on both sides, signal over control mean, under 1 quenches
Hit rate of the full screen: of about 16,000 compounds, about 960 (6%) were called active. For the sample, actives were picked, then their nearest neighbours and some compounds at random.
Property: fluorescence interference ratio; scope: individual compounds
Just the number, please, no unit after it.

Some compounds with recorded fluorescence interference ratio:
>  <compound-smiles>
CS(=O)(=O)N(CC(=O)N1CCOCC1)c1ccccc1Cl

>  <fluorescence interference ratio>
0.989

$$$$
>  <compound-smiles>
O=C(c1ccc(S(=O)(=O)N2CCOCC2)cc1)N1CCN(c2ccccc2)CC1

>  <fluorescence interference ratio>
0.907

$$$$

Let us examine a further case.
Need fluorescence interference ratio of "O=C1c2ccccc2C(=O)c2c1cccc2N1CCN(CCO)CC1" , thanks. 1.22
